protocol-description: RP, Waters ACQUITY UPLC HSS C18, 100 × 2.1 mm, 1.7 µm, 40 °C, 0.35 mL/min, estimated dead time 0.63 min; A: water + 0.1% formic acid; B: methanol + 0.1% formic acid; gradient (min/%B) 0/0.5 4/70 4.5/98 5.4/98
conditions-used: stereoisomer not certain
value-kind: LC retention time (min)

Check out these entries, answers already filled in.
[[record]]
compound = "NC(CS)C(=O)O (centres undefined)"
recorded_measurement = 0.798

[[record]]
compound = "O=c1ccc2ccccc2o1"
recorded_measurement = 4.19


[I] CN(C)CCCN1c2ccccc2CCc2ccccc21
[II] O=C(O)c1cc(=O)c2ccccc2[nH]1
Between I and II , which one shows the smaller LC retention time number? Select an item and report its label.
II

[A] CC12CCC(=O)C=C1CCC1C2CCC2(C)C1CCC2(O)C(=O)CO (centres undefined)
[B] CC(=O)NCCCCN
[C] O=c1[nH]cnc2c1ncn2C1OC(CO)C(O)C1O (centres undefined)
[D] O=C(O)C(O)c1ccc(O)cc1 (centres undefined)
Rank the items in ascending order with respect to LC retention time. Write out the labels following the order that was asked for.
B, C, D, A

[I] NC(=O)CCCCC1CCSS1 (centres undefined)
[II] NC(Cc1ccc(O)cc1)C(=O)O (centres undefined)
[III] O=C(O)C1CCCCN1 (centres undefined)
[IV] NC1(C(=O)O)CC1
Rank the items in ascending order with respect to LC retention time. Write out the labels following the order that was asked for.
IV, III, II, I

The measured values listed here are drawn from the RepoRT retention time repository (doi:10.1038/s41586-021-03707-9).
